# TESTED TARGET: Relaxin receptor 1 (Homo sapiens) (UniProt Q9HBX9)
# Sequence (Q9HBX9 whole entry, looked up): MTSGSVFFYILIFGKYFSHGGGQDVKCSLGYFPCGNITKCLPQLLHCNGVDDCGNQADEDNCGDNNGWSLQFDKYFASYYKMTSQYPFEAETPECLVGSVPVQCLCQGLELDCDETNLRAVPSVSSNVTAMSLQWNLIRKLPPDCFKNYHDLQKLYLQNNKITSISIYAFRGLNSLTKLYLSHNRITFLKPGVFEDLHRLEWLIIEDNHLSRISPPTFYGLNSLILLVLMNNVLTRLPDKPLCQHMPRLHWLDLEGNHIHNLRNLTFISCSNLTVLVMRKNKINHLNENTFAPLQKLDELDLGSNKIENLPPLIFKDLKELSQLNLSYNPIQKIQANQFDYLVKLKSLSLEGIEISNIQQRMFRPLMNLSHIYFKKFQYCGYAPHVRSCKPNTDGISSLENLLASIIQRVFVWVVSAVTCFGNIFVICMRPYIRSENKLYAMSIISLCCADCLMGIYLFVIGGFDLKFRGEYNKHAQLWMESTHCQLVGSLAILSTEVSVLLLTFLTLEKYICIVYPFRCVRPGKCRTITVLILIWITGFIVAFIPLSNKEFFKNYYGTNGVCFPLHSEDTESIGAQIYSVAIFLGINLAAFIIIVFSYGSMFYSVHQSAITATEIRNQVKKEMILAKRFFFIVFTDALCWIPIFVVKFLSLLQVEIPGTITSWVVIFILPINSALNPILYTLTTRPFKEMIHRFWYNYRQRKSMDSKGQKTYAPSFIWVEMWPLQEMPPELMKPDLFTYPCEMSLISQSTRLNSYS
# METHOD SUMMARY: qHTS Assay for Antagonists of the Relaxin Receptor RXFP1; note: % is set by controls: 0 for no effect and ±100 for the full control effect
# CONDITION SET: HEK293-RXFP1, relaxin-stimulated cAMP HTRF, 30 min; at 57.5 µM
Out of some 350,000 compounds screened, about 2,100 (0.6%) were called active. About 1% were inconclusive and are not listed.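 Rule for the calls: active = activity change of -60% or lower, but not beyond a set lower limit; inconclusive = change between -60% and -40%, or beyond the set limit; inactive = change above -40%.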 The list comes from a sample in which actives are over-represented; it also holds close analogues and randomly drawn compounds.
Use one of these outcomes when replying: active, inactive

CCC1(CC(C)c2ccccc2)C(=O)NC(=O)NC1=O (centres undefined): active
CC(c1ccccc1)(c1ccccc1)c1ccncc1: active
c1cc2c(c(NC3=NCCCS3)c1)CCCC2: inactive

For the next question, use this compound.
**Query** Give the logged outcome of this assay for the following compound: `C[C@H]1CN([C@@H](C)CO)C(=O)CCCn2nncc2CO[C@H]1CN(C)C(=O)Oc1cccc2ccccc12`
**Result** inactive

###

# TESTED TARGET: Relaxin receptor 1 (Homo sapiens)
# METHOD SUMMARY: qHTS Assay for Antagonists of the Relaxin Receptor RXFP1; note: % is set by controls: 0 for no effect and ±100 for the full control effect
# CONDITION SET: HEK293-RXFP1, relaxin-stimulated cAMP HTRF, 30 min; at 57.5 µM; stronger effect = lower value
Hit rate of the full screen: of about 350,000 compounds, about 2,100 (0.6%) were called active. Roughly 1% stayed inconclusive and do not appear here. Shown is part of a subset that was picked to be rich in actives.
REPORTED ENDPOINT: activity change, negative = inhibition (%)
Numeric only. Scale: %

O=C1NC(=O)N(Cc2ccco2)C(=O)/C1=C\c1ccc(-c2ccc(F)cc2)o1: -116
CCCOC(=O)c1cncn1C(C)c1ccccc1 (stereo not given): 12.5
CCCCC1C(=O)NC(=O)N(C2CCCCC2)C1=O (stereo not given): -10.8
CC(=CCOc1ccc2ccc(=O)oc2c1)C1=CC(=O)C(C)(C)O1: 1.36
COC(=O)C1=C(c2ccc(OCc3ccccc3)cc2)C[C@@H]2CC[C@H]1N2C(=O)NCc1ccc(Cl)cc1: -0.858
Cc1cccc(N2C(=O)NC(=O)/C(=C\c3cnn(-c4ccccc4)c3)C2=O)c1: -97.1
COc1cccc(N2C(=O)NC(=O)/C(=C\c3cn(C)c4ccccc34)C2=O)c1: 1.09
O=C1NC(=O)N(c2ccccc2)C(=O)/C1=C/c1ccc([N+](=O)[O-])s1: -11.7
Cc1cc(/C=C2/C(=O)NC(=O)N(Cc3ccco3)C2=O)c(C)n1-c1ccc(C(=O)O)cc1: 7.49

Okay, now this compound:
**Query** Value lookup for activity change, negative = inhibition; key = `O=c1c2ccccc2nc(CBr)n1-c1ccc(Cl)cc1`
**Result** 8.62

Where these numbers come from: PubChem BioAssay AID1259400
